Just for reference, ChEMBL document CHEMBL4265902 is where these values come from.

# tgt: Sodium- and chloride-dependent GABA transporter 1 (Homo sapiens) (UniProt P30531)
# Sequence (P30531 whole entry, looked up): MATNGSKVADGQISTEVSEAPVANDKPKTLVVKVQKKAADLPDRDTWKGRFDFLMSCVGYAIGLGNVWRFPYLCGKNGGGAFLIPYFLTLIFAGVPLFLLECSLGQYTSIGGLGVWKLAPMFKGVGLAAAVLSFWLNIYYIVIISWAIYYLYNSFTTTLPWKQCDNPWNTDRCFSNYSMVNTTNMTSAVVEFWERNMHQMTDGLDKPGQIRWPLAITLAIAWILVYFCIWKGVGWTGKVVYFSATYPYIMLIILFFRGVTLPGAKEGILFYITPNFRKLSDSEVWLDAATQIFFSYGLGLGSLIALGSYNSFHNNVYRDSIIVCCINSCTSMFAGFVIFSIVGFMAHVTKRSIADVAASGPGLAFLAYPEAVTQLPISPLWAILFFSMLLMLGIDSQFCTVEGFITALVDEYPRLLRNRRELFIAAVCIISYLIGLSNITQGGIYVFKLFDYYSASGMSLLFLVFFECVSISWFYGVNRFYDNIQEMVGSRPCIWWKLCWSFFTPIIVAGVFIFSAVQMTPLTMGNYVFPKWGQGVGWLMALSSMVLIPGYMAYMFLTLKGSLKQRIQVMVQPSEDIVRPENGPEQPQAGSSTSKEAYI
# protocolNotes: Inhibition of human GAT1 expressed in CHO cells assessed as reduction in [3H]GABA uptake at 100 uM after 20 mins by liquid scintillation counting analysis relative to control
# Format: cell-based
measuredAttribute: inhibition (%)

CC[C@H](C(=O)O)[C@@H]1C[C@H]1N : 12.2

I: CC[C@@H](C(=O)O)[C@@H]1C[C@H]1N
II: C[C@@H](C(=O)O)[C@@H]1C[C@H]1N
III: C[C@H](C(=O)O)[C@@H]1C[C@H]1N
# input Order by inhibition, ascending. Enter labels, ranked according to the request.
# output III, II, I
(III: 0%, II: 4.3%, I: 8.6%)
